The values you see were collected from patent US20120245137A1.

testedTarget: human α1H T-type channels (Homo sapiens)
Sequence (O95180 whole entry): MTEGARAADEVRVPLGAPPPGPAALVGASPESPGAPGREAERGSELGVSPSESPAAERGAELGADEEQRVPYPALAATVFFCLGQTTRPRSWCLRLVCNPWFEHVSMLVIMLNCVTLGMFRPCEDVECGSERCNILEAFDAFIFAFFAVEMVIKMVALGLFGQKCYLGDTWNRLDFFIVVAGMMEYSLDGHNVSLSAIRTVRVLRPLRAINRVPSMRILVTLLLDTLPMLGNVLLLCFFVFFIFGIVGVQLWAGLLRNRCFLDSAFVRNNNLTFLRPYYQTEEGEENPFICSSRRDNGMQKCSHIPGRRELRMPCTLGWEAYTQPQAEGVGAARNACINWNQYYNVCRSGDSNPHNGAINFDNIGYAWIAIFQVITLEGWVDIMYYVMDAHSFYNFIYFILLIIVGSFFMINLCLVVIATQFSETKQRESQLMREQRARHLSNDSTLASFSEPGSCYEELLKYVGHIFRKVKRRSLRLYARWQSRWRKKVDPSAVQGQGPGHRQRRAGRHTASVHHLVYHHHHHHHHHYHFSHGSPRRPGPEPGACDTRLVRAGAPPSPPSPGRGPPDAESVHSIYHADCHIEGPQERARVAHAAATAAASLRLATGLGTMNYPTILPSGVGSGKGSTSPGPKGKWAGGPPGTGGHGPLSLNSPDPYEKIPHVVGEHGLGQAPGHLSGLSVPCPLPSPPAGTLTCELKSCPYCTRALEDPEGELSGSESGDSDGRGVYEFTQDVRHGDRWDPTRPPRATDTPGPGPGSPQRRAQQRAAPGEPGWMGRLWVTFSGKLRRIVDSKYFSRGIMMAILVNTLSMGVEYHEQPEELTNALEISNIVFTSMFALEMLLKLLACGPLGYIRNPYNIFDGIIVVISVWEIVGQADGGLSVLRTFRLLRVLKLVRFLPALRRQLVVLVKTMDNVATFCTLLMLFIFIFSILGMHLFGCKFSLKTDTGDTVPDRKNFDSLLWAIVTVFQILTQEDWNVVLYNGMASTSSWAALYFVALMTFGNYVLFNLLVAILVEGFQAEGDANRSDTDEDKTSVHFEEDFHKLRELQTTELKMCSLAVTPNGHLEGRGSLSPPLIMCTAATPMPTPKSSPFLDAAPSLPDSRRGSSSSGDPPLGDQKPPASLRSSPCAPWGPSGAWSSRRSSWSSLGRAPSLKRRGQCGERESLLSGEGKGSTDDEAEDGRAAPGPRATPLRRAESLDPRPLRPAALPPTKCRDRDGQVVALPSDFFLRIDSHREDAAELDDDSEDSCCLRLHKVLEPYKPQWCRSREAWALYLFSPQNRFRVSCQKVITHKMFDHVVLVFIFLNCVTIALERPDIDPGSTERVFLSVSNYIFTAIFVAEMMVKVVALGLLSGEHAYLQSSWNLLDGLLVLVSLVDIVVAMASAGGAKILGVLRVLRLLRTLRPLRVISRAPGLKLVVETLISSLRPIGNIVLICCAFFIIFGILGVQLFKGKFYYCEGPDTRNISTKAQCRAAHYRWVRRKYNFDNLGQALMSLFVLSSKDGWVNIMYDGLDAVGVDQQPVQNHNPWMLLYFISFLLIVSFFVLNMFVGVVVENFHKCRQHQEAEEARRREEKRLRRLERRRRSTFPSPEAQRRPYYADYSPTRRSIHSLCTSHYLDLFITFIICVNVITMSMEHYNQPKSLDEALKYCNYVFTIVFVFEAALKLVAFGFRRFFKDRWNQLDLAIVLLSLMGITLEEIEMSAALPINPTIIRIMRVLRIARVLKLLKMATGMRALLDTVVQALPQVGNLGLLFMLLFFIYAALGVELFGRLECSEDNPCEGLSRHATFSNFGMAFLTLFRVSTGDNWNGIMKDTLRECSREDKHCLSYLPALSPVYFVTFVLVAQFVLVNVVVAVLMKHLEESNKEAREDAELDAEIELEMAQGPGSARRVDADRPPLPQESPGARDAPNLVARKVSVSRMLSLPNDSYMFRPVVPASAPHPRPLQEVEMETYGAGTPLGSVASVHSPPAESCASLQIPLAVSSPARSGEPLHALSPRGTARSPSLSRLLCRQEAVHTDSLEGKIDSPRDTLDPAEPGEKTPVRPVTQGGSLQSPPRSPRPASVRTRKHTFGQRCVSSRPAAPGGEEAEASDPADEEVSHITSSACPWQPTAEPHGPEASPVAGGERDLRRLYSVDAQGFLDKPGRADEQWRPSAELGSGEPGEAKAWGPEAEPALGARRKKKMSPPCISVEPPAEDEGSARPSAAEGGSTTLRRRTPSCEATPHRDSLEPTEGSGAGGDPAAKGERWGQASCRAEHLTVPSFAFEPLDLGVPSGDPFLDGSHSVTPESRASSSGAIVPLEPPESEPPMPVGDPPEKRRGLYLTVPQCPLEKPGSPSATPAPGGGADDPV
testProtocol: T-type calcium channel block, whole cell patch clamp, α1H
runConditions: HEK cells stably expressing human α1H; mainly non-inactivated protocol; values above 10,000 nM represented as 10000
pIC50: −log10 of the molar value.
readout: pIC50

[A] COc1cc(F)cc(C(=O)NC[C@H]2CC[C@@H](S(=O)(=O)c3cccc(C(F)(F)F)c3)CC2)c1
[B] CC1(NC(=O)c2ccc(C(F)(F)F)cc2S(C)(=O)=O)CCC(S(=O)(=O)c2cccc(C(F)(F)F)c2)CC1 (centres unmarked)
[C] O=C(N[C@H]1CC[C@@](F)(S(=O)(=O)c2cc(F)cc(C(F)(F)F)c2)CC1)c1cc(C(F)(F)F)ccn1
[D] Cc1nc(C(F)(F)F)ccc1NC(=O)[C@H]1C[C@H](S(=O)(=O)c2cccc(C(F)(F)F)c2)C1
Exercise: Hello, I need these entries ordered by pIC50, highest reading first. Thanks! Lab note: final answer is the ordered label list.
Key: A, C, D, B
